# TARGET_OR_SYSTEM: cathepsin K (Homo sapiens)
# Construct: the active enzyme was obtained as the enzyme fraction by using detergent containing lysis buffer; made in house; host or cells: HEK293T (GenHunter Corporation), transient expression; detergent lysate used as enzyme fraction
# Sequence (P43235 115-329): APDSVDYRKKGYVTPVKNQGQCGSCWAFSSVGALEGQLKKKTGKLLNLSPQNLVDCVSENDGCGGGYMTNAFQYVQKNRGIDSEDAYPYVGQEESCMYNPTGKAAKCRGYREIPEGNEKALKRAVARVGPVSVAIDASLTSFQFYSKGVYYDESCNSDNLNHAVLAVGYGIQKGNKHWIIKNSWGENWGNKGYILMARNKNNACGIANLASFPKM
# EXPERIMENTAL_DETAILS: Cathepsin K inhibitory activity (fluorescent substrate Z-Leu-Arg-MCA)
# Type: biochemical
# CONDITION_SET: enzyme expressed in HEK293T; 15 min preincubation, 30 min reaction at room temperature, pH 5.5; read-out: Activity Intensity (cathepsin K inhibitory activity, pIC50 class) (converted)
For each entry below, report its IC50 value.

COc1ccc(NC[C@H](CCS(C)(=O)=O)NC(=O)[C@H](CC(C)C)N[C@@H](c2ccc(S(C)(=O)=O)cc2)C(F)(F)F)c(OC)c1 has a reported IC50 of 3.16 to 31.6 nM

Entry CC(C)C[C@H](N[C@@H](c1ccccc1)C(F)(F)F)C(=O)N[C@H](CNc1ccc(N2CCOCC2)cc1)CN(C)C ; IC50 = ≤ 3.16 nM

Query CC[C@@H](CNc1ccc(N2CCSCC2)cc1OC)NC(=O)[C@H](CC(C)(C)F)N[C@@H](c1ccc(Br)cc1)C(F)(F)F yields IC50 of ≤ 3.16 nM

For record COc1ccc(NC[C@H](CCS(C)(=O)=O)NC(=O)[C@H](CC(C)C)N[C@@H](c2ccc(OC)nc2)C(F)(F)F)c(OC)c1 the listed IC50 is 31.6 to 10000 nM

Value of IC50 reported for the compound CC[C@@H](CNc1ccc(OC)cc1OC)NC(=O)[C@H](CC(C)(C)F)N[C@@H](c1ccccc1)C(F)(F)F is ≤ 3.16 nM

Measured IC50, CC(C)C[C@H](N[C@@H](c1ccccc1)C(F)(F)F)C(=O)N[C@@H](CCN)CNc1ccc(N2CCOCC2)cc1 : 3.16 to 31.6 nM

In plain terms, CC[C@@H](CNc1ccc(N2CCOCC2)cc1)NC(=O)[C@H](CC(C)C)N[C@@H](c1ccc(O)cc1)C(F)(F)F has a documented IC50 of ≤ 3.16 nM

Value of measured IC50 for the entry CC[C@@H](CNc1ccc(N2CCSCC2)cc1)NC(=O)[C@H](CC(C)(C)F)N[C@@H](c1ccc(Br)cc1)C(F)(F)F : ≤ 3.16 nM

Sample CC[C@@H](CNc1ccc(OCC#N)cc1OC)NC(=O)[C@H](CC(C)(C)F)N[C@@H](c1ccccc1)C(F)(F)F ; IC50 observed: ≤ 3.16 nM

What the record says about CC[C@@H](CNc1ccc(OCCS(C)(=O)=O)cc1OC)NC(=O)[C@H](CC(C)C)N[C@@H](c1ccc(S(C)(=O)=O)cc1)C(F)(F)F : IC50 is 3.16 to 31.6 nM

// recorded IC50 for CC[C@@H](CNc1ccc(OCCS(C)(=O)=O)cc1OC)NC(=O)[C@H](CC(C)(C)F)N[C@@H](c1ccc(Br)cc1)C(F)(F)F : ≤ 3.16 nM

Briefly, IC50 measured for CC(C)C[C@H](N[C@@H](c1ccccc1)C(F)(F)F)C(=O)N[C@@H](CCCNC(=O)OCc1ccccc1)CNc1ccc(N2CCOCC2)cc1 : ≤ 3.16 nM

The measured IC50 associated with CC[C@@H](CNc1ccc(OC)cc1OC)NC(=O)[C@H](Cc1ccccc1)N[C@@H](c1ccccc1)C(F)(F)F reads 31.6 to 10000 nM
